Cited source for all entries: patent US11339171B2

Form field: Vd (one value per entry).
# Method Notes: Pharmacokinetics in ICR mice after intravenous and intragastric administration
# Format: in vivo
# Experimental Parameters: male, ICR, mouse, plasma, iv, 2 mg/kg, ICR mice, IV 2 mg/kg, individual animal; read-out: Vz
Value expressed in L/kg; do not type the unit.

Previously resolved entries follow.
{"columns": ["Compound", "Endpoint Value"],
 "data": [
  ["CCOc1cc(OC)c(-c2nc3c(n2C(C)C)[C@@]2(C(=O)Nc4cc(Cl)ccc42)N(c2cc(Cl)ccc2C)C3=O)cn1 [Example S-72]", 0.34],
  ["COc1cc(OC)c(-c2nc3c(n2C(C)C)[C@@]2(C(=O)Nc4cc(Cl)ccc42)N(c2cc(Cl)cnc2C)C3=O)cn1 [Example S-131]", 1.73],
  ["COc1ncc(-c2nc3c(n2C(C)C)[C@@]2(C(=O)Nc4cc(Cl)ccc42)N(c2cc(Cl)ccc2F)C3=O)c(OC)n1 [Example S-44]", 1.86]
]}

Now consider the entry below.
Query: Vd for COc1nc(C2CC2)ncc1-c1nc2c(n1C(C)C)[C@@]1(C(=O)Nc3cc(Cl)ccc31)N(c1cc(Cl)ccc1C)C2=O [Example S-121] ?
Response: 0.52

###

# Method Notes: Pharmacokinetics in ICR mice after intravenous and intragastric administration
# Assay type: in vivo
# Experimental Parameters: male, ICR, mouse, plasma, iv, 2 mg/kg, ICR mice, IV 2 mg/kg, individual animal; read-out: t1/2 (converted)
Reported Endpoint: half-life (h)
Give the number; h is assumed, so skip it.

Some compounds with recorded half-life:
{"columns": ["Structure Smiles String", "Reported Endpoint", "Endpoint Value"],
 "data": [
  ["CCOc1cc(OC)c(-c2nc3c(n2C(C)C)[C@@]2(C(=O)Nc4cc(Cl)ccc42)N(c2cc(Cl)ccc2F)C3=O)cn1", "half-life", 1.43],
  ["COc1cc(OC)c(-c2nc3c(n2C(C)C)[C@@]2(C(=O)Nc4cc(Cl)ccc42)N(c2cccc(Cl)c2)C3=O)cn1", "half-life", 0.9]
]}

Switching to the query record.
Query: For the compound shown here, "COc1cc(OC)c(-c2nc3c(n2C(C)C)[C@@]2(C(=O)Nc4cc(Cl)ccc42)N(c2cc(Cl)ccc2F)C3=O)cn1" , give the reported half-life.
Response: 1.07

###

Quick record: log10 of IC50, MDM2 (Homo sapiens, UniProt Q00987).
Quick note: numbers are log10 of IC50, with nM as the unit.

Please review the following examples before continuing.
{"columns": ["Structure Smiles String", "Reported Endpoint", "Endpoint Value"],
 "data": [
  ["COc1cc(N(C)C)c(F)cc1-c1nc2c(n1C(C)C)[C@]1(C(=O)Nc3cc(Cl)ccc31)N(c1cc(Cl)ccc1C)C2=O", "log10 of IC50", 2.35],
  ["COc1ncc(-c2nc3c(n2C(C)C)[C@@]2(C(=O)Nc4cc(Cl)ccc42)N(c2cc(C)ccc2C)C3=O)c(OC)n1", "log10 of IC50", 0.72],
  ["COc1cc(F)ccc1-c1nc2c(n1C(C)C)[C@]1(C(=O)Nc3cc(Cl)ccc31)N(c1cc(Cl)ccc1C)C2=O", "log10 of IC50", 2.12],
  ["COc1cc(OCCF)ncc1-c1nc2c(n1C(C)C)[C@]1(C(=O)Nc3cc(Cl)ccc31)N(c1cc(Cl)ccc1C)C2=O", "log10 of IC50", 2.22],
  ["CCOc1ncc(-c2nc3c(n2C(C)C)[C@]2(C(=O)Nc4cc(Cl)ccc42)N(c2cc(F)cc(Cl)c2)C3=O)c(OC)n1", "log10 of IC50", 2.83]
]}

// moving on: another record for log10 of IC50
Query: Provide the documented log10 of IC50 with MDM2 (Homo sapiens, UniProt Q00987) as the system for "COc1ccc(-c2nc3c(n2C(C)C)[C@]2(C(=O)Nc4cc(Cl)ccc42)N(c2cc(Cl)ccc2C)C3=O)c(OC)c1"
Sequence (Q00987 whole entry): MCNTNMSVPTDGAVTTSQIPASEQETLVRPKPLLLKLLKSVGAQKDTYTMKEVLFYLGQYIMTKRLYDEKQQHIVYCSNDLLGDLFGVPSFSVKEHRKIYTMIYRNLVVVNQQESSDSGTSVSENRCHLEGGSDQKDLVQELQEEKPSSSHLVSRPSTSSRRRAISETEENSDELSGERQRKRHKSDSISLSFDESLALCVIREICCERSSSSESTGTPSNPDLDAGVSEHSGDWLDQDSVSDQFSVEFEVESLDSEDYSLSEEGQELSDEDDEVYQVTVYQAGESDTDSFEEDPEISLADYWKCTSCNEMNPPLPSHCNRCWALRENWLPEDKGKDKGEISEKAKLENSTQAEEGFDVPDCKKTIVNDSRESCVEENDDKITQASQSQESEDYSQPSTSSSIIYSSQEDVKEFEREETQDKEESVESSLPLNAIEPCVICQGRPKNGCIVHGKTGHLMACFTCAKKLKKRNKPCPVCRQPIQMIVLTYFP
Response: 2.52
